Assay system: MICA*004 on HCC1534 cells (human, UniProt Q29983 24-383)
Experiment summary: cell-based or functional assay
Catalogue of % max inhibition of shedding readings, one per entry.
Write down the numeric answer in % and omit the unit.

32D2 (antibody, V domains shown, Mouse hybridoma antibody; constant regions differ by assay) VH: DVHLVESGGGLVQPGGSRKLSCAASGFTFNTFGMNWVRQAPEKGLEWVAYINSGSNTIYYADTVKGRFTISRDNPKNTLFLQMTSLRSEDTAMYYCTRWEPVTGGFSYWGQGTLVTVSA VL: QIVLTQSPAFKSSSLGERVTMTCTASSSISSSYLHWYQQKPGSSPKLWIYTTSNLASGVPARFSGSGSGTSYSLTISTMEAEDAATYYCHQHHRSPFTFGSGTKVEIK | 76

// moving on: another record for % max inhibition of shedding
Q: Value lookup for % max inhibition of shedding; key = 1E6.1.3 (antibody, V domains shown, Mouse hybridoma antibody; constant regions differ by assay) VH: QVQLKESGPGLVAPSQSLSITCTVSGFSLTGSGVNWVRQPPGQGLEWLGMIWGDGNTDYNSALKSRLSISKDNSKSQVFLKMNSLQTDDTARYYCARGAHYGKRWYFDVWGAGTTVTVSS VL: DIQMTQTTFSLSASLGDRVTISCSASQGINNYLNWYQQRPDGTVKLLIYYTSTLPSGVPSRFSGSGSGTDYSLTISNLEPEDIASYYCQQYSKLPPTFGGGTKVEIK
Ans: 46

// data source = patent US20200055939A1
